# target_entity: human Siglec-2/CD22 protein (Homo sapiens, UniProt P20273)
# Sequence (P20273 20-847): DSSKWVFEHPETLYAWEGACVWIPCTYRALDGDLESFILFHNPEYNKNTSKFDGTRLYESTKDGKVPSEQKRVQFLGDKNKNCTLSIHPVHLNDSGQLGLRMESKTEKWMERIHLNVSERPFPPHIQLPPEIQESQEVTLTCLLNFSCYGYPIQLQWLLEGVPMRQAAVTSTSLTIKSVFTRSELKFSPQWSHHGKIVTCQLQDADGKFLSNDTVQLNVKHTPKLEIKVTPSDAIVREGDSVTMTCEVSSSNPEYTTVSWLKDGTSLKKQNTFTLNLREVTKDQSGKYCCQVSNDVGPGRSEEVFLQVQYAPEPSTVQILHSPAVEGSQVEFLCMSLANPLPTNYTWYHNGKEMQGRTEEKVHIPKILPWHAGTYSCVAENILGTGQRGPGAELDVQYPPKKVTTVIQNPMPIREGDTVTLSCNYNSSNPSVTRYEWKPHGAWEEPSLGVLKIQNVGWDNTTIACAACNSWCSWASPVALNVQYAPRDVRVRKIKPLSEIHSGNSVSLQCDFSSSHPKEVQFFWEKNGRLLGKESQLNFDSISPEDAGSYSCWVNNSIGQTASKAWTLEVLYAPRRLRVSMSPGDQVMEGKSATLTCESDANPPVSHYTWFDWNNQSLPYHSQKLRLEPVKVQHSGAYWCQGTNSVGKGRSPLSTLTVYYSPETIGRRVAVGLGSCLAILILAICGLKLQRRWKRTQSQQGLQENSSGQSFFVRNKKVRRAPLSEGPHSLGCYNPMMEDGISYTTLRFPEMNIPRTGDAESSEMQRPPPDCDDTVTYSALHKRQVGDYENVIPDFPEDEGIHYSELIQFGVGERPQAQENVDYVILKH
# test_method_notes: SPR binding affinity to human CD22
# run_parameters: steady-state analysis
Attribute: Kd

structure_notation=C#CCOCCOCCNc1c(NCCCCCCO[C@]2(C(=O)O)C[C@H](O)[C@@H](NC(=O)CO)[C@H]([C@H](O)[C@H](O)CNC(=O)c3ccc(Cl)cc3)O2)c(=O)c1=O target_entity="human Siglec-2/CD22 protein (Homo sapiens, UniProt P20273)" reported_measurement="< 1000 nM"

// C#CCOCCOCCO[C@]1(C(=O)O)C[C@H](O)[C@@H](NC(=O)CO)[C@H]([C@H](O)[C@H](O)CNC(=O)CC)O1 : Kd value = > 10000 nM

response.value for C#CCOCCCCCCO[C@]1(C(=O)O)C[C@H](O)[C@@H](NC(N)=O)[C@H]([C@H](O)[C@H](O)CNC(=O)Cc2ccc(Cl)cc2)O1 (field: Kd) = < 1000 nM

Recorded result, C#CCCOc1ccc(CO[C@]2(C(=O)O)C[C@H](O)[C@@H](NC(=O)CO)[C@H]([C@H](O)[C@H](O)CNC(=O)Cc3cccc(-c4cccc(O)c4)c3)O2)cc1 , Kd: < 1000 nM

Value of Kd reported for the compound C#CCOCCCCCCO[C@]1(C(=O)O)C[C@H](O)[C@@H](NC(=O)CN)[C@H]([C@H](O)[C@H](O)CNC(=O)Cc2ccc(Cl)cc2)O1 is 1000 to 10000 nM

====

# target_entity: mouse Siglec-2-Fc-Avi (CD22) (Mus musculus)
# Sequence (P35329 22-708 limits assumed): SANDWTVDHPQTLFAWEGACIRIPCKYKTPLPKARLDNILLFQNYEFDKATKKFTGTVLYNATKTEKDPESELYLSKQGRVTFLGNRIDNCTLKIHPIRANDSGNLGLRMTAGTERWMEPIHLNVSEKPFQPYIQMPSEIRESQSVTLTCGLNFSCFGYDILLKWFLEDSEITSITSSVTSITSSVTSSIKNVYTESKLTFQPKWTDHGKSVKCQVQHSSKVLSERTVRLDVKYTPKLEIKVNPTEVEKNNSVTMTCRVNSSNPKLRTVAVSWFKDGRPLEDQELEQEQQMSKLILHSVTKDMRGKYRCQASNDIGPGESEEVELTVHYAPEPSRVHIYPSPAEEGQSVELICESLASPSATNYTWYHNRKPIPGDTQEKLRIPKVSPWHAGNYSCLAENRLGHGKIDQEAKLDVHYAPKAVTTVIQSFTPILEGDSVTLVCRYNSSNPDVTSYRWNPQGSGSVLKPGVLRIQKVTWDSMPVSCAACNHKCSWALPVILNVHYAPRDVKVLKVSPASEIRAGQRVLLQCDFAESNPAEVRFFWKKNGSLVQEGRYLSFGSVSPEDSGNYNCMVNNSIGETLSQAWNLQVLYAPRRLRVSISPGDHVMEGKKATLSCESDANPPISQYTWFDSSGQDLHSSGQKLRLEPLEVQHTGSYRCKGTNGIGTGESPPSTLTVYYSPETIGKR
pKd: −log10 of the molar value.
readout_label: pKd

Memo: C#CCCOc1cccc(CO[C@]2(C(=O)O)C[C@H](O)[C@@H](NC(C)=O)[C@H]([C@H](O)[C@H](O)CNC(=O)c3cccc(Oc4ccccc4)c3)O2)c1 , reported pKd: < 5.00

Entry C#CCCCCCCc1cn([C@]2(C(=O)O)C[C@H](O)[C@@H](NC(=O)CO)[C@H]([C@H](O)[C@H](O)CNC(=O)Cc3ccc(Cl)cc3)O2)nn1 , pKd reported as 5.00 to 6.00

Notebook: C#CCOCCCCCCO[C@]1(C(=O)O)C[C@H](O)[C@@H](NCC(=O)NC)[C@H]([C@H](O)[C@H](O)CNC(=O)Cc2ccc(Cl)cc2)O1 , pKd read as 5.00 to 6.00

Given item CC(=O)NCCOCCOCCOCCOCCC(=O)NCCCCCCO[C@]1(C(=O)O)C[C@H](O)[C@@H](NC(=O)CO)[C@H]([C@H](O)[C@H](O)CNC(=O)Cc2ccc(C(F)F)cc2)O1 , the value recorded as its pKd is 5.00 to 6.00

pKd reported for this compound C#CCOCCCCCCO[C@]1(C(=O)O)C[C@H](O)[C@@H](NC(=O)CO)[C@H]([C@H](O)[C@H](O)CNC(=O)Cc2ccc(Cl)c(F)c2)O1 : 5.00 to 6.00

====

# target_entity: cynomolgus Siglec-2/CD22 (Macaca fascicularis)
# Sequence (A0A2K5WCZ6 entry or part of it): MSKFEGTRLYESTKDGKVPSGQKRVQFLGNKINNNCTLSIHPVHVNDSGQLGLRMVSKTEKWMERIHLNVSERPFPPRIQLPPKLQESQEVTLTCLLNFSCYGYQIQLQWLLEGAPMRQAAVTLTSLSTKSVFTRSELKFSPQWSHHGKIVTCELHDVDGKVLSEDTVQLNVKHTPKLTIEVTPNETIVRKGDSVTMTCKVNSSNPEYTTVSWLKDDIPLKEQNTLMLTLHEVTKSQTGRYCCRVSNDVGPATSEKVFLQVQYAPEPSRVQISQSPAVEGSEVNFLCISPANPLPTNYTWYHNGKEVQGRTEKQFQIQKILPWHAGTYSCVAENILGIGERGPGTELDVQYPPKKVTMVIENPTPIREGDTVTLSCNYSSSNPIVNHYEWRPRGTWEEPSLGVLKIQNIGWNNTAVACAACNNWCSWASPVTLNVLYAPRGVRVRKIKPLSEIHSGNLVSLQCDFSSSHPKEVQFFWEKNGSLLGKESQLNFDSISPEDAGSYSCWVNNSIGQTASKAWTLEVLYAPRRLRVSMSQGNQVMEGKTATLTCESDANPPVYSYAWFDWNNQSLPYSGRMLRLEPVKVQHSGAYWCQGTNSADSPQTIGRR
# test_method_notes: biochemical
# run_parameters: SPR, steady-state analysis; read-out: Affinity cyno CD22
readout_label: Kd

Some solved entries appear below for comparison.
molecule="C#CCCCCCCS[C@]1(C(=O)O)C[C@H](O)[C@@H](NC(=O)CO)[C@H]([C@H](O)[C@H](O)CNC(=O)Cc2cccc(O)c2)O1 [Compound 141]" reported_measurement="1 to 10 µM"
molecule="C#CCOCCOCCO[C@]1(C(=O)O)C[C@H](O)[C@@H](NC(=O)CO)[C@H]([C@H](O)[C@H](O)CNC(=O)c2ccccc2Cl)O1 [Compound 27]" reported_measurement="> 10 µM"
molecule="C#CCOCCOCCO[C@]1(C(=O)O)C[C@H](O)[C@@H](NC(=O)CO)[C@H]([C@H](O)[C@H](O)CNC(=O)Cc2ccc(-c3ccncc3)cc2)O1 [Compound 72]" reported_measurement="> 10 µM"
molecule="CCCNC(=O)CCCCCCO[C@]1(C(=O)O)C[C@H](O)[C@@H](NC(=O)CO)[C@H]([C@H](O)[C@H](O)CNC(=O)Cc2cccc(O)c2)O1 [Compound 207]" reported_measurement="1 to 10 µM"
molecule="C#CCOCCCCCCO[C@]1(C(=O)O)C[C@H](O)[C@@H](NC(=O)CO)[C@H]([C@H](O)[C@H](O)CNC(=O)Cc2ccc(C#N)cc2)O1 [Compound 162]" reported_measurement="< 1 µM"

Note to self: Kd of C#CCOCCCCCCO[C@]1(C(=O)O)C[C@H](O)[C@@H](NC(=O)C(=O)NC)[C@H]([C@H](O)[C@H](O)CNC(=O)Cc2ccc(Cl)cc2)O1 [Compound 189] with cynomolgus Siglec-2/CD22 (Macaca fascicularis) was < 1 µM

The observed Kd for C#CCOCCCCCCO[C@]1(C(=O)O)C[C@H](O)[C@@H](NC(=O)NCC(F)(F)F)[C@H]([C@H](O)[C@H](O)CNC(=O)Cc2ccc(Cl)cc2)O1 [Compound 193] when tested with cynomolgus Siglec-2/CD22 (Macaca fascicularis) stands at 1 to 10 µM

====

This listing pairs molecules with measured Kd.
# target_entity: cynomolgus Siglec-2/CD22 (Macaca fascicularis)
# test_method_notes: biochemical
# run_parameters: SPR, steady-state analysis; read-out: Affinity cyno CD22

Recorded results for 4 molecules are shown here.
structure_notation=C#CCOCCOCCO[C@@]1(C(=O)O)O[C@@H]([C@H](O)[C@H](O)CNC(=O)Cc2ccc(-c3ccccc3)cc2)[C@H](NC(=O)CO)[C@@H](NC(=O)c2cccc(OC)c2)[C@@H]1O readout_label=Kd reported_measurement="1 to 10 µM"
structure_notation=C#CCOCCCCCCS[C@]1(C(=O)O)C[C@H](O)[C@@H](NC(=O)CO)[C@H]([C@H](O)[C@H](O)CNC(=O)Cc2ccc(Cl)cc2)O1 readout_label=Kd reported_measurement="< 1 µM"
structure_notation=C#CCOCCOCCO[C@]1(C(=O)O)C[C@H](O)[C@@H](NC(=O)CO)[C@H]([C@H](O)[C@H](O)CNC(=O)Cc2ccc(O)c(Cl)c2)O1 readout_label=Kd reported_measurement="> 10 µM"
structure_notation=CC(=O)NCCOCCOCCOCCOCCNc1c(NCCOCCOCCO[C@]2(C(=O)O)C[C@H](O)[C@@H](NC(=O)CO)[C@H]([C@H](O)[C@H](O)CNC(=O)Cc3ccc(-c4ccccc4)cc3)O2)c(=O)c1=O readout_label=Kd reported_measurement="1 to 10 µM"

# Kd (molecule: C#CCOCCOCCO[C@]1(C(=O)O)C[C@H](O)[C@@H](NC(=O)CO)[C@H]([C@H](O)[C@H](O)CNC(=O)Cc2ccc(-c3ccccc3)nc2)O1 ) is > 10 µM

Please fill in: Kd reported for C#CCOCc1cn([C@]2(C(=O)O)C[C@H](O)[C@@H](NC(=O)CO)[C@H]([C@H](O)[C@H](O)CNC(=O)Cc3ccc(-c4ccc(O)cc4)cc3)O2)nn1 = 1 to 10 µM

Form field Kd, entry C#CCOCCOCCO[C@@]1(C(=O)O)O[C@@H]([C@H](O)[C@H](O)CNC(=O)Cc2ccc(-c3ccccc3)cc2)[C@H](NC(=O)CO)[C@@H](NC(=O)CC)[C@@H]1O : 1 to 10 µM

For reference, reported Kd for C#CCOCCOCCO[C@]1(C(=O)O)C[C@H](O)[C@@H](NC(=O)CO)[C@H]([C@H](O)[C@H](O)CNC(=O)Cc2ccc(C)cc2)O1 stands at 1 to 10 µM
